Origin of the recorded values: patent US9326506B2

- Test system: rice
- RUN DESCRIPTION: Rice leaf bending assay (leaf inclination angle)
- Format: in vivo
- CONDITION CONTEXT: 1 mg/l, 48 hr
- Text: According to a rice leaf bending assay, we measured leaf inclination angle of rice to determine effects of the natural brassinolide analogues on the enhancement of plant development. The larger the leaf inclination angle of rice, the more effects on plant development. The detailed assay procedure is as follows: The natural brassinolide analogues, BR1, BR2, BR3, BR4, BR5 and BR6, used herein, were those prepared by the method of Example 1. […]
Criterion: Average angle strictly under 100 degree. Met: condition met. Not met: condition not met.

Use the examples below as a reference point.
INSERT INTO results (molecule, class) VALUES
  ('CC(C)(O)CC[C@@H](O)[C@](C)(O)[C@H]1CC[C@@]2(O)[C@@H]3CC(=O)[C@@H]4C[C@@H](O)[C@@H](O)C[C@]4(C)[C@H]3CC[C@]12C', 'condition not met'),
  ('CC(C)C[C@@H](O)[C@H](O)[C@@H](C)[C@H]1CCC2C3CC(=O)C4C[C@H](O)[C@H](O)C[C@]4(C)C3CC[C@@]21C (stereo partly drawn)', 'condition not met'),
  ('CC(C)[C@H](C)[C@@H](O)[C@H](O)[C@@H](C)[C@H]1CCC2C3COC(=O)C4C[C@H](O)[C@H](O)C[C@]4(C)C3CC[C@@]21C (stereo partly drawn)', 'condition not met'),
  ('CC(C)[C@H](C)[C@@H](O)[C@H](O)[C@@H](C)[C@H]1CCC2C3CC(=O)C4C[C@H](O)CC[C@]4(C)C3CC[C@@]21C (stereo partly drawn)', 'condition met'),
  ('C=C(C(C)C)[C@@H](O)[C@H](O)[C@@H](C)[C@H]1CCC2C3COC(=O)C4C[C@H](O)[C@H](O)C[C@]4(C)C3CC[C@@]21C (stereo partly drawn)', 'condition met');

Okay, next one:
Query string: Input CC[C@@H](C(C)C)[C@@H](O)[C@H](O)[C@@H](C)[C@H]1CCC2C3COC(=O)C4C[C@H](O)[C@H](O)C[C@]4(C)C3CC[C@@]21C (stereo partly drawn) ; condition: Average angle strictly below 100 degree. Does it hold?
Result string: condition met
